Target under test: RARb:RXRa (Homo sapiens, UniProt P10826;P19793 full;full)
Sequence (P10826 whole entry, chain 1 of 2): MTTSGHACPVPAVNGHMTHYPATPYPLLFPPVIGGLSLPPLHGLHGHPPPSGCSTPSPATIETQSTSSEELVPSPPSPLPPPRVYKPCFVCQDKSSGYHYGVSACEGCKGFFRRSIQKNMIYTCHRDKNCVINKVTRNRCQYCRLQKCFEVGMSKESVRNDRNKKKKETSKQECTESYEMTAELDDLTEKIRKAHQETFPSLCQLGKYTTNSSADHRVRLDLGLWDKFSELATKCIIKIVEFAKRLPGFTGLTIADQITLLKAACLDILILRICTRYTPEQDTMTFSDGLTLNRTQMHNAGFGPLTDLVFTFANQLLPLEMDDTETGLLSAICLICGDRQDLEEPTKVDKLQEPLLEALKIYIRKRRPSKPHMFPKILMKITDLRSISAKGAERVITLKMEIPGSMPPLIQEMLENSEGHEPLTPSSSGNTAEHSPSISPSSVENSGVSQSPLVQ
Sequence (P19793 whole entry, chain 2 of 2): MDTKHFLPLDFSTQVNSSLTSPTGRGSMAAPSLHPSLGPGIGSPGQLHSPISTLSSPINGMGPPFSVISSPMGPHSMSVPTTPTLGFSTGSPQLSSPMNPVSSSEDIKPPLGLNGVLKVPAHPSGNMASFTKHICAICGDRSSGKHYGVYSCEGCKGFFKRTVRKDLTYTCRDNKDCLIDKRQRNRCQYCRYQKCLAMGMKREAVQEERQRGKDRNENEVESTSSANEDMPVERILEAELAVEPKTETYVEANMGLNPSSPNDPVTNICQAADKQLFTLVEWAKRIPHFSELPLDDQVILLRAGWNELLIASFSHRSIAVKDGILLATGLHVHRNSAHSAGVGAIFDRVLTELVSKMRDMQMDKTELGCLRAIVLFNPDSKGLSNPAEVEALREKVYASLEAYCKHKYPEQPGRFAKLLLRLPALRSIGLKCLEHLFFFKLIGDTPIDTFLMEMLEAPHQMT
Protocol: no ligand; PBM; 270 nM : 90 nM RXRa; PBS pH 7.4, 2% milk, 0.02% Triton X-100, 1 mM DTT, BSA, 0.4 mg/ml salmon testes DNA
Protocol conditions: tags: His kept;His cleaved; copies: 1;1; label: surface-attached array probe

Binder: NRC3_random_hg19_411_o1 (dsDNA) DNA 1: GCATTGAGCAGGTGTTGATTACAAATGAGATGTTTCGCGATTGACAGCGTAGAATGAAGG DNA 2: CCTTCATTCTACGCTGTCAATCGCGAAACATCTCATTTGTAATCAACACCTGCTCAATGC
binding signal: 0 PBM z-score against 500 random probes
